System: Target C mRNA
Assay: RT-qPCR splicing assay panel, Target C canonical junction (CJ) mRNA
Assay type: cell-based, human
Details: Homo sapiens, canonical junction (CJ) mRNA, RT-qPCR panel, Table 4A; read-out: Target C, decrease in CJ mRNA levels, IC50
recorded_metric: IC50

Reference set, count: 6
The measured IC50 associated with O=c1cc(-c2cc(O)c(-c3ccc(N4CC[C@@H](NC5CCC5)C4)nn3)cc2F)cc[nH]1 reads 100 to 1000 nM

The measured IC50 associated with COc1cc(-c2ccc(-c3ccc(N4CC[C@@H](CNC5CCC5)C4)nn3)c(O)c2)cnn1 reads 100 to 1000 nM

The measured IC50 associated with Cc1ncc(-c2ccc(-c3ccc(N4CC[C@](C)(NC5CCC5)C4)nn3)c(O)c2)s1 reads < 100 nM

The measured IC50 associated with Oc1cc(-n2cnnc2)c(F)cc1-c1ccc(N2CCC(NC3CCC3)C2)nn1 (stereo not shown) reads > 10000 nM

The measured IC50 associated with COc1cc(-c2ccc(-c3ccc(N4CC[C@@](C)(NC5CCC5)C4)nn3)c(O)c2)ncn1 reads 100 to 1000 nM

The measured IC50 associated with Cc1cn(-c2cc(O)c(-c3ccc(N4CC[C@@H](NC5CCC5)C4)nn3)cc2F)cn1 reads 100 to 1000 nM

Now for a further molecule.
The measured IC50 associated with COc1cc(-c2cc(O)c(-c3ccc(N4CC[C@](C)(NC5CCC5)C4)nn3)cc2F)cnn1 (single isomer, unassigned) reads 100 to 1000 nM

###

Tested on: SMN2 mRNA
Assay: RT-qPCR splicing assay panel, SMN2 canonical junction (CJ) mRNA
Format: cell-based, human
Conditions: Homo sapiens, canonical junction (CJ) mRNA, RT-qPCR panel, Table 4A; read-out: SMN2, decrease in CJ mRNA levels, IC50
pIC50: −log10 of the molar value.
# pIC50 annotations

The measured pIC50 associated with CCc1cc(-c2ccc(-c3ccc(N4CC[C@@H](NC5CCC5)C4)nn3)c(O)c2)cnn1 [Compound 277] reads 5.00 to 6.00

The measured pIC50 associated with Cc1nc(-c2cc(O)c(-c3ccc(N4CCC(NC5CCC5)C4)nn3)cc2F)cs1 (stereo not shown) [Compound 398] reads 5.00 to 6.00

The measured pIC50 associated with COc1cc(-c2ccc(-c3ccc(N4CCC(NC5CC(F)(F)C5)C4)nn3)c(O)c2)cnn1 (stereo not shown) [Compound 334] reads 6.00 to 7.00

The measured pIC50 associated with CN(C1CCN(c2ccc(-c3cc(F)c(-c4cn[nH]c4)cc3O)nn2)C1)C(C)(C)C (stereo in doubt) [Compound 119] reads > 7.00

###

Test system: Target C mRNA
Test: RT-qPCR splicing assay panel, Target C canonical junction (CJ) mRNA
Type: cell-based, human
Conditions: Homo sapiens, canonical junction (CJ) mRNA, RT-qPCR panel, Table 4A; read-out: Target C, decrease in CJ mRNA levels, IC50
# IC50 annotations

The measured IC50 associated with Oc1cc(-c2cn[nH]c2)ccc1-c1ccc(N2CCC(NC3(CF)CC3)C2)nn1 (stereo not shown) [Compound 112] reads 0.1 to 1 µM

The measured IC50 associated with Oc1cc(-c2ccnnc2)ccc1-c1ccc(N2CCC(NC3CCC3)C2)nn1 (stereo not shown) [Compound 388] reads 1 to 10 µM

The measured IC50 associated with Cc1ncc(-c2cc(O)c(-c3ccc(N4CCC(NC5CCCC5)C4)nn3)cc2F)s1 (stereo not shown) [Compound 391] reads < 0.1 µM

The measured IC50 associated with COc1cc(-c2cc(O)c(-c3ccc(N4CC[C@@](C)(NC5CCC5)C4)nn3)cc2F)cnn1 (single isomer, unassigned) [Compound 308] reads 0.1 to 1 µM

###

# pIC50 annotations
Tested on: Target C mRNA
Assay: RT-qPCR splicing assay panel, Target C canonical junction (CJ) mRNA
Assay type: cell-based, human
Details: Homo sapiens, canonical junction (CJ) mRNA, RT-qPCR panel, Table 4A; read-out: Target C, decrease in CJ mRNA levels, IC50
pIC50: −log10 of the molar value.

The measured pIC50 associated with COc1cc(-c2cc(O)c(-c3ccc(N4CC[C@@H](N[C@H]5C[C@H](F)C5)C4)nn3)cc2F)cnn1 [Compound 232] reads 6.00 to 7.00

The measured pIC50 associated with Cc1ncc(-c2cc(O)c(-c3ccc(N4CC[C@@H](CNC5CCC5)C4)nn3)cc2F)s1 [Compound 453] reads 5.00 to 6.00

The measured pIC50 associated with Cc1ncc(-c2ccc(-c3ccc(N4CCC(NC5CCC5)C4)nn3)c(O)c2)o1 (centres unmarked) [Compound 347] reads 6.00 to 7.00

The measured pIC50 associated with COc1cc(-c2ccc(-c3ccc(N4CCC(NC5CC(F)(F)C5)C4)nn3)c(O)c2)cnn1 (centres unmarked) [Compound 334] reads 6.00 to 7.00

The measured pIC50 associated with Cc1nc(-c2cc(O)c(-c3ccc(N4CCC(NC5CCC5)C4)nn3)cc2F)cs1 (centres unmarked) [Compound 398] reads 5.00 to 6.00

The measured pIC50 associated with COc1nc(-c2ccc(N3CCC(NC4CCC4)C3)nn2)ccc1-c1cnc(C)s1 (centres unmarked) [Compound 374] reads 6.00 to 7.00

The measured pIC50 associated with Cc1ncc(-c2cc(O)c(-c3ccc(N4CC[C@H](CNC5CCC5)C4)nn3)cc2F)s1 [Compound 454] reads 6.00 to 7.00

Now for a further compound.
The measured pIC50 associated with Cc1ncc(-c2cc(O)c(-c3ccc(N4CCC(CNC5CCC5)C4)nn3)cc2F)s1 (centres unmarked) [Compound 342] reads > 7.00

###

System: HTT mRNA
Experiment: RT-qPCR splicing assay, HTT canonical (CJ) and alternative (AJ) junction mRNA
Type: cell-based, human
Conditions: Table 3A; A673 or K562 cells, 24 h treatment; read-out: HTT CJ (IC50, decrease in CJ mRNA)
# IC50 annotations

Reference set, count: 3
The measured IC50 associated with Cc1ncc(-c2cc(O)c(-c3ccc(N4CC[C@H](N[C@H](C)C5CC5)C4)nn3)cc2F)s1 reads < 100 nM

The measured IC50 associated with Cc1nc(-c2ccc(-c3ccc(N4CCC(NC5CCC5)C4)nn3)c(O)c2)cs1 (centres unmarked) [Compound 412] reads > 10000 nM

The measured IC50 associated with CN([C@@H]1CCN(c2ccc(-c3ccc(-c4cn[nH]c4)cc3O)nn2)C1)C(C)(C)C reads < 100 nM

***
The measured IC50 associated with Oc1cc(-c2cn[nH]c2)ccc1-c1ccc(N2CCC(NC3CC3)C2)nn1 (centres unmarked) [Compound 102] reads > 10000 nM

The measured IC50 associated with Oc1cc(-c2cn[nH]c2)ccc1-c1ccc(N2CCC(NC3CC3)C2)nn1 (centres unmarked) [Compound 100] reads < 100 nM

The measured IC50 associated with COc1cc(-c2ccc(-c3ccc(N4CC[C@H](NC5(C)CC5)C4)nn3)c(O)c2)cnn1 reads < 100 nM

The measured IC50 associated with COc1cc(-c2ccc(-c3ccc(N4CC[C@@H](NC5(C)CC5)C4)nn3)c(O)c2)cnn1 reads < 100 nM

The measured IC50 associated with Cc1nc(-c2ccc(-c3ccc(N4CCC(NC5CCC5)C4)nn3)c(O)c2)cs1 (centres unmarked) [Compound 413] reads 1000 to 10000 nM

###

# pIC50 annotations
Test system: Target C mRNA
Test: RT-qPCR splicing assay panel, Target C canonical junction (CJ) mRNA
Assay type: cell-based, human
Settings: Homo sapiens, canonical junction (CJ) mRNA, RT-qPCR panel, Table 4A; read-out: Target C, decrease in CJ mRNA levels, IC50
pIC50: −log10 of the molar value.

The measured pIC50 associated with COc1cc(-c2ccc(-c3ccc(N4CC[C@H](N(CCF)C5CCC5)C4)nn3)c(O)c2)cnn1 [Compound 303] reads < 5.00

The measured pIC50 associated with COc1cc(-c2ccc(-c3ccc(N4CC[C@H](N(C)C(C)(C)C)C4)nn3)c(O)c2)cnn1 [Compound 337] reads > 7.00

***
The measured pIC50 associated with Cc1nnc(-c2cc(O)c(-c3ccc(N4CC[C@@H](NCC5CC5)C4)nn3)cc2F)s1 [Compound 402] reads 5.00 to 6.00

The measured pIC50 associated with Cc1ncc(-c2cc(O)c(-c3ccc(N4CC[C@@H](NCC5CC5)C4)nn3)cc2F)s1 [Compound 392] reads > 7.00

The measured pIC50 associated with Cc1ncc(-c2cc(O)c(-c3ccc(N4CCC(NC5CCCCC5)C4)nn3)cc2F)s1 (centres unmarked) [Compound 410] reads 6.00 to 7.00

The measured pIC50 associated with Cc1ccc(-c2ccc(-c3ccc(N4CC[C@@H](NC5CCC5)C4)nn3)c(O)c2)cn1 [Compound 293] reads 5.00 to 6.00

The measured pIC50 associated with Cc1nc(F)c(-c2cc(O)c(-c3ccc(N4CCC(NC5CCC5)C4)nn3)cc2F)s1 (centres unmarked) [Compound 378] reads 5.00 to 6.00

The measured pIC50 associated with COc1nc(-c2ccc(N3CCC(NC(C)(C)C)C3)nn2)ccc1-c1cnc(C)s1 (centres unmarked) [Compound 355] reads > 7.00
